measurementTarget: CRBN/DDB1 (Homo sapiens)
Sequence (Q96SW2 whole entry): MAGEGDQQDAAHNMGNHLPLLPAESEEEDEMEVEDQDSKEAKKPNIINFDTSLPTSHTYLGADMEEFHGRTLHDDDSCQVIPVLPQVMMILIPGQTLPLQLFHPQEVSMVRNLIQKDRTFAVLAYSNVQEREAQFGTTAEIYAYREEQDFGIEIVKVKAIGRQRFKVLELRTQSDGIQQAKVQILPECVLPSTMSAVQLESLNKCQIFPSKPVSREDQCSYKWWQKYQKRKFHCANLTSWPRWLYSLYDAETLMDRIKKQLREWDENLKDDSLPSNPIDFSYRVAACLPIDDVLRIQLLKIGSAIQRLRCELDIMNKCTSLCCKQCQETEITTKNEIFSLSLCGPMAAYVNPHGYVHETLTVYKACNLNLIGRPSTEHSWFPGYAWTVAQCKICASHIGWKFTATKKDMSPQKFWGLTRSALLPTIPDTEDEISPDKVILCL
Sequence (Q16531 whole entry partner): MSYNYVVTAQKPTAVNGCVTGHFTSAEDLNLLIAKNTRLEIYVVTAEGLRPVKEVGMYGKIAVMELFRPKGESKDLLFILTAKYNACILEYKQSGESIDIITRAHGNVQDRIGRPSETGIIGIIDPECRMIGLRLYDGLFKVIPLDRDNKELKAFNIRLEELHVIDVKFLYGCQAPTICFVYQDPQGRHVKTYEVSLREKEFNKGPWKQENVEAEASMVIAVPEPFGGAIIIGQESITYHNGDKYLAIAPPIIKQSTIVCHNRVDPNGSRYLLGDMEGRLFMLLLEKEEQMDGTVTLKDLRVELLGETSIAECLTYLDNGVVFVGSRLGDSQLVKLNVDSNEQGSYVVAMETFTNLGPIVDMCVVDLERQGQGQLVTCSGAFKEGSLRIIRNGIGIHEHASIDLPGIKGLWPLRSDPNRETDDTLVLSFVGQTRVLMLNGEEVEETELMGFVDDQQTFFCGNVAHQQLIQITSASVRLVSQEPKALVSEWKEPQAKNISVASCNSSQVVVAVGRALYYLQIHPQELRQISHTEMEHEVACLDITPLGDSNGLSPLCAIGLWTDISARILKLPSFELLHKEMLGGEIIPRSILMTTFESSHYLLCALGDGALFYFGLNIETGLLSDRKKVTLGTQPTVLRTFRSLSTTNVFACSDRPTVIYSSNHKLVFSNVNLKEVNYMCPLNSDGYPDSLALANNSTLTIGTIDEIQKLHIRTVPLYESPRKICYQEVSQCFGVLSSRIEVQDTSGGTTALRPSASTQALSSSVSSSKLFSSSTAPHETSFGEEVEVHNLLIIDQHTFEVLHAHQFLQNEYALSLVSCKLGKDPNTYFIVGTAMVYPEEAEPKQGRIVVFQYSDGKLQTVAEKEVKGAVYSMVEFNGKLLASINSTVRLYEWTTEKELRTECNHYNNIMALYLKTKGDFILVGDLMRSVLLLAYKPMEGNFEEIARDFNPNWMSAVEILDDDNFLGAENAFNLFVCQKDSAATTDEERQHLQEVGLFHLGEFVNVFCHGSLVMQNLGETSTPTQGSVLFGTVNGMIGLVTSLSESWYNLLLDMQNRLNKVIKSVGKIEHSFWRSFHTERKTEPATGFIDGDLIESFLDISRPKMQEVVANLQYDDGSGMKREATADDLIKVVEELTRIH
experimentalContext: HTRF, Cy5-labeled Thalidomide probe
pIC50: −log10 of the molar value.

# compound, pIC50
records = [
    ("C[C@@H]1Cc2c(ccc3[nH]ncc23)[C@@H](c2ccc(N3CCC4(CC3)CC(CN3CCN5c6ccc7c(c6OC[C@H]5C3)CN([C@H]3CCC(=O)NC3=O)C7=O)C4)cn2)N1CC1(F)CC1 [Compound A4]", "> 7.30"),
    ("C[C@H]1Cc2c(ccc3[nH]ncc23)[C@@H](c2ccc(N3CC4(CCC(CN5CCN6c7ccc8c(c7OC[C@@H]6C5)CN([C@@H]5CCC(=O)NC5=O)C8=O)CC4)C3)nc2)N1CC(F)(F)F (stereo in doubt) [Compound A18]", "6.30 to 7.30"),
]

meta.source: patent US20260256925A1
